Tested on: HCT-116 colon
Assay: NCI tumour cell line growth inhibition, 48 h
For each of the compounds below, state its TGI.
Answer with a number only, understood to be in µM.

Using the record for Cc1ccc(NC(=O)/C(CC2N=c3c(ccc4c(O)c5ccccc5c(O)c34)=NC2O)=N/NC(C)(C)C)cc1 (stereo not given) , report its TGI. 29.6

Can you check N#Cc1c2c(c(Cl)n3c1nc1ccccc13)CCCC2 next? 5.43

Can you check CCOC(=O)c1ccc2c(c1)[n+](=O)c(C(=O)C1CCCS1)c(C(F)(F)F)n2[O-] (stereo not given) next? 0.34

Can you check CCOC(=O)c1c(NC(=O)COc2cccc3cccnc23)sc(C(=O)N(C)C)c1C next? 45.6

Can you check COc1ccc(C(=C[N+](=O)[O-])c2ccc(OC)cc2)cc1 next? 27.8

Can you check COC1=CC(=O)c2c(ccc3ncnc(N)c23)C1=O next? 3.33

Can you check CCOP(=S)(OCC)Oc1ccc2c(c1)OC(=O)C1(Cl)C2(C)C2(Cl)C(=O)Oc3cc(OP(=S)(OCC)OCC)ccc3C12C (stereo not given) next? 25

Can you check C=C1c2c(C)nn(-c3ccc(OC)cc3)c2N(C)C23C[C@@H]1C1(C)c4c(C)nn(-c5ccc(OC)cc5)c4N(C)C(C)(C[C@H]12)C3 (stereo not given in full) next? 12.8

----------
System: SNB-19 CNS
Experiment: NCI tumour cell line growth inhibition, 48 h
QUANTITY NAME: GI50

Using the record for [2H]C([2H])([2H])Oc1cc(F)ccc1/C=C/C(=O)/C=C(/C=C/c1ccc(F)cc1OC([2H])([2H])[2H])OB(F)F , report its GI50. 3.47 µM

Can you check CC1OC(OC2C(O)C(OCCc3ccc(O)c(O)c3)OC(CO)C2OC(=O)/C=C/c2ccc(O)c(O)c2)C(O)C(O)C1OC1OCC(O)(CO)C1O (configuration not stated) next? > 100 µM

Can you check O=[N+]([O-])c1ccc(C(Br)c2ccc([N+](=O)[O-])cc2)cc1 next? 15 µM

Can you check O=C(Nc1cccc(-n2ccc3c(NC(=O)c4ccccc4)nccc32)c1)Nc1ccc(Cl)c(C(F)(F)F)c1 next? 0.494 µM

Can you check COC(=O)[C@@H](C)C[C@H](Cc1ccccc1)NC(=O)c1cccc([C@@H](C[C@H](C(C)C)N(C)C(=O)[C@@H](NC(=O)[C@H]2CCCCN2C)C2CC2)OC(C)=O)n1 next? 0.00333 µM

Can you check O=C1NC(=O)/C(=C/c2c(Cl)nc3sccn23)S1 next? > 79.1 µM

Can you check O=C(Nc1ccc(-n2cc(-c3ccncc3)c(-c3ccc(O)c(Cl)c3)n2)cc1)c1cc(C(F)(F)F)cc(C(F)(F)F)c1 next? 11.9 µM

----------
Tested on: MDA-MB-435
Assay: NCI tumour cell line growth inhibition, 48 h
For each of the compounds below, state its TGI.

Using the record for COc1cc(/C=C/C(=O)Oc2ccc(NC(C)=O)cc2)ccc1C(=O)OCc1ccccc1 , report its TGI. > 100 µM

Can you check O=C1NC2c3c(I)sc(I)c3/C(=N\O)C2O1 (centres undefined) next? > 100 µM

Can you check O=C(NC(=S)Nc1ccccn1)c1ccccc1 next? > 100 µM

Can you check CCC(O)CC1OC2(CCC1C)CC1OC(=O)/C=C\C(C)(O)C(O)C(C)C(O)C(OC3CC(OC)C(O)C(C)O3)C(O)C(C)(O)CCC/C=C/C3CC(C)COC3(O)CC(O2)C1C (centres undefined) next? 25.4 µM

Can you check CCOC(=O)Cc1csc(NC(=O)COC(=O)c2ccc(N)cc2)n1 next? > 100 µM

Can you check CCOC(=O)c1ccc2c(c1)[n+](=O)c(C(=O)C1CCCS1)c(C(F)(F)F)n2[O-] (centres undefined) next? 0.987 µM

Can you check O=C1c2ccccc2C(=Nc2ccc3ccccc3c2)C1(C1=C(c2ccccc2)C(=Nc2ccc3ccccc3c2)c2ccccc21)c1ccccc1 (centres undefined) next? > 87.3 µM

Can you check O=C1C=CC(=O)c2c1ccc1c3ccccc3n(CCCCCCCCn3c4ccccc4c4ccc5c(c43)C(=O)C=CC5=O)c21 next? > 100 µM

Can you check CN(NC(=O)/C(=C/c1ccc(Cl)cc1)NC(=O)c1ccccc1)c1cn[nH]c(=O)c1Cl next? > 100 µM
